protocolSummary: Encapsulation rate of liposome (RP-HPLC)
Assay type: physicochemical
conditionSet: L9(3^4) orthogonal test of lipid components and liposome forming conditions; 6 mmol/L vitamin E
Ends that are not written are not given here. * marks the point of attachment. Palmitoyl = CCCCCCCCCCCCCCCC(=O)*
Threshold check on Encapsulation rate: at or above 80% gives t, strictly below gives f.

Reference set (4 entries):
1) 3 (KSSQYIKANSKFIGITEGGGDPRVRGLYFPA; not fully specified (N-terminus); printed as CH3CH2CH═CHCH2CH═CH(CH2)7CO7KSSQYIKANSKFIGITEGGGDPRVRGLYFPA; also: N-terminal acyl on K unclear: CH3(CH2)7CH=CH(CH2)-CO or CH3CH2CH=CHCH2CH=CH(CH2)7CO) [compound 3]; f
2) 5 (Palmitoyl-KSSQYIKANSKFIGITEAAASIVSPFIPLLGGGDPRVRGLYFPA) [compound 5]; t
3) 9 (MQWNSTALHQALQDP; Hepatitis B virus) [compound 9]; t
4) 1 (Palmitoyl-KSSQYIKANSKFIGITEAAAFLPSDFFPSVGGGDPRVRGLYFPA) [compound 1]; t

Proceed to the following item.
Given the entry 4 (Palmitoyl-KSSQYIKANSKFIGITEAAAFLPSDFFPSVGGGCTKPTDGNCT; cysteine pairing not given here) [compound 4] , answer whether its Encapsulation rate meets or surpasses 80%. f

// provenance: patent US8591908B2
